# Organism: Cricetulus griseus
# METHOD: Hypersensitivity factor was defined as the ratio of IC50(AA8) to IC50(UV4)
# Assay type: functional
Reported values of HF for individual entries
Output: the number by itself.

As a guide, the following entries are already answered.
CN(C)CCNC(=O)c1cc(N(CCO)CCO)c([N+](=O)[O-])cc1[N+](=O)[O-] has a reported HF of 1.4

O=[N+]([O-])c1ccc(N(CCO)CCO)cc1 has a reported HF of 1.1

CN(C)CCNC(=O)c1cccc(N(CCCl)CCCl)c1 has a reported HF of 44

Further cases:
O=C(c1cc(N(CCO)CCO)c([N+](=O)[O-])cc1[N+](=O)[O-])N1CCOCC1 has a reported HF of 1.1

CN(C)CCNC(=O)c1cc(N(CCCl)CCCl)ccc1[N+](=O)[O-] has a reported HF of 12

---

# Species on record: Cricetulus griseus
# METHOD: Hypersensitivity factor was defined as the ratio of IC50(AA8) to IC50(UV4)
# Assay type: functional
Reported values of HF for individual entries
Output: the number by itself.

As a guide, the following entries are already answered.
CN(C)CCNC(=O)c1cc([N+](=O)[O-])ccc1N(CCCl)CCCl has a reported HF of 40

O=C(c1cc(N(CCCl)CCCl)ccc1[N+](=O)[O-])N1CCOCC1 has a reported HF of 19

NC(=O)c1cc(N(CCCl)CCCl)c([N+](=O)[O-])cc1[N+](=O)[O-] has a reported HF of 6.8

O=C(c1cc(N(CCCl)CCCl)c([N+](=O)[O-])cc1[N+](=O)[O-])N1CCOCC1 has a reported HF of 23

Further cases:
NC(=O)c1cc(N(CCO)CCO)c([N+](=O)[O-])cc1[N+](=O)[O-] has a reported HF of 1.1

---

# Species: Cricetulus griseus
# METHOD: Hypersensitivity factor was defined as the ratio of IC50(AA8) to IC50(UV4)
# Assay type: functional
Kindly return met if reported HF is no lower than 2; return not met if it is lower.

Ask: For this compound, is measured HF 2 or higher? CN(C)CCNC(=O)c1cc([N+](=O)[O-])ccc1N(CCO)CCO
Result: not met

Ask: For this compound, is measured HF 2 or higher? O=C(c1cc(N(CCO)CCO)ccc1[N+](=O)[O-])N1CCOCC1
Result: not met

Ask: For this compound, is measured HF 2 or higher? CN(C)CCNC(=O)c1cc(N(CCCl)CCCl)c([N+](=O)[O-])cc1[N+](=O)[O-]
Result: met

Ask: For this compound, is measured HF 2 or higher? O=C(c1cc(N2CC2)c([N+](=O)[O-])cc1[N+](=O)[O-])N1CCOCC1
Result: met

Ask: For this compound, is measured HF 2 or higher? CN(C)CCNC(=O)c1cc(N(CCO)CCO)ccc1[N+](=O)[O-]
Result: not met

Further cases:
Ask: For this compound, is measured HF 2 or higher? O=C(c1cc([N+](=O)[O-])ccc1N(CCO)CCO)N1CCOCC1
Result: not met

Ask: For this compound, is measured HF 2 or higher? NC(=O)c1cc(N2CC2)c([N+](=O)[O-])cc1[N+](=O)[O-] [TRETAZICAR]
Result: met

Ask: For this compound, is measured HF 2 or higher? O=C(c1cc([N+](=O)[O-])ccc1N(CCCl)CCCl)N1CCOCC1
Result: met

Ask: For this compound, is measured HF 2 or higher? O=[N+]([O-])c1ccc(N(CCO)CCO)c([N+](=O)[O-])c1
Result: not met
